tgt: Hck (UniProt P08631)
Sequence (P08631 whole entry, looked up): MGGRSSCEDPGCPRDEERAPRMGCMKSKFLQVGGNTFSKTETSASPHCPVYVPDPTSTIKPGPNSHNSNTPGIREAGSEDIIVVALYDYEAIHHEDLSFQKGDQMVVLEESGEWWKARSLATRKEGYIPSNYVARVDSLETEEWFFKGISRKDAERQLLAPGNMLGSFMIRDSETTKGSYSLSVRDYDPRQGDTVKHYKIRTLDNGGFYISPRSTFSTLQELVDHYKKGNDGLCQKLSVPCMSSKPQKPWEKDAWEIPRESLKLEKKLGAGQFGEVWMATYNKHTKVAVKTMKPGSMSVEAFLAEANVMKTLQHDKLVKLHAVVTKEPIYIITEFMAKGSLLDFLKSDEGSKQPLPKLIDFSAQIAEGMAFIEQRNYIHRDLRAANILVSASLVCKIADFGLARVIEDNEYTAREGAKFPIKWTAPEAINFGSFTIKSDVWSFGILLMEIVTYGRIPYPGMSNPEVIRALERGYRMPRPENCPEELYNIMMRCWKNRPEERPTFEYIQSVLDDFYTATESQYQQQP
assayDetails: phosphorylation enrichment, bacterial display (enrichment ratio); higher = better substrate or ligand; peptides without Tyr show the background;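 further: 11-residue human phosphosite peptides and single-mutation variants displayed on the E. coli surface, counted by deep sequencing, each peptide's frequency after selection divided by its frequency in the unselected input library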;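 further: frequency after pTyr selection over input frequency; kinase dosed for 20-30% of maximal phosphorylation in three min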
Assign t to entries whose phosphorylation enrichment meets or exceeds 0.7; assign f to the rest.

- sequenceText: "NDENIYKGLPD [VAV3_Y141_D139N]"
  tgt: "Hck (UniProt P08631)"
  className: "t"
- sequenceText: "KASVDYIRKLQ [MITF_Y360]"
  tgt: "Hck (UniProt P08631)"
  className: "f"
- sequenceText: "DRLAVCIDRVR [LMNA_Y45_Y45C]"
  tgt: "Hck (UniProt P08631)"
  className: "f"
- sequenceText: "DLDLTSIFPNI [PTEN_Y27_Y27S_YF]"
  tgt: "Hck (UniProt P08631)"
  className: "f"
- sequenceText: "FSMGCYEISLE [HMGCL_Y198_G203E_YF]"
  tgt: "Hck (UniProt P08631)"
  className: "t"
- sequenceText: "EVEPTYVVLYD [ERCC4_Y577_R576T]"
  tgt: "Hck (UniProt P08631)"
  className: "t"
- sequenceText: "SYCYRYCCAAR [SUMF1_Y344_R345C]"
  tgt: "Hck (UniProt P08631)"
  className: "f"
- sequenceText: "EDEGLYTVRVP [MYOM3_Y343_M344T]"
  tgt: "Hck (UniProt P08631)"
  className: "t"
- sequenceText: "MVSLFYGTAIF [OR10C1_Y251_L255I]"
  tgt: "Hck (UniProt P08631)"
  className: "t"
- sequenceText: "MASISYDYCRV [BST2_Y6_T4I]"
  tgt: "Hck (UniProt P08631)"
  className: "t"
- sequenceText: "GLVFLYVEKNQ [PRELP_Y156_M157V]"
  tgt: "Hck (UniProt P08631)"
  className: "f"
- sequenceText: "RVGNMYMRGLS [ABCG8_Y209_V210M]"
  tgt: "Hck (UniProt P08631)"
  className: "f"
- sequenceText: "ETAENYLGYTA [HSPA9_Y181_H184Y]"
  tgt: "Hck (UniProt P08631)"
  className: "t"
